# Tested on: Ba/F3 cells expressing EGFR mutations
# PROTOCOL DETAILS: Cell proliferation assay, Ba/F3 cells expressing EGFR mutations (CellTiter-Glo, 72 hours)
# Assay type: cell-based
# CONDITION LABEL: BaF3 cells, EGFR L858R-T790M, CellTiter-Glo, read-out: L858R-T790M/BaF3 GI50
Catalogue of GI50 readings, one per entry.
A number alone suffices; assume nM.

Problem: Item Cn1ncc2c1OCCN1CC3CCC(C3)(C1)n1c(nc3ccc(N4CCOCC4)cc31)NC(=O)c1cc-2c(=O)n(C)c1 (single isomer, unassigned) [Example A62A] : provide GI50
Solution: 1050

Problem: Item CCC1CCCOc2c(cnn2C)-c2cc(cn(C)c2=O)C(=O)Nc2nc3ccc(N4CCN(C)CC4)cc3n2C1 (single isomer, unassigned) [Example A16A] : provide GI50
Solution: 165

Problem: Item CN1CCC2(CCN(c3ccc4nc5n(c4c3)C34CCC(CN(CCOc6c(cnn6C)-c6cc(cn(C)c6=O)C(=O)N5)C3)C4)CC2)C1 (single isomer, unassigned) [Example A82B] : provide GI50
Solution: 0.82

***
Problem: Item CN1CCC2(CN(c3ccc4nc5n(c4c3)C34CCC(CN(CCOc6c(cnn6C)-c6cc(cn(C)c6=O)C(=O)N5)C3)C4)C2)C(F)(F)C1 (single isomer, unassigned) [Example A91A] : provide GI50
Solution: 884

Problem: Item CN(C)C1CN(c2ccc3nc4n(c3c2)C23CCC(CN(CCOc5c(cnn5C)-c5cc(cn(C)c5=O)C(=O)N4)C2)C3)C1 (single isomer, unassigned) [Example A65A] : provide GI50
Solution: 1970

* * *

Catalogue of GI50 readings, one per entry.
# Tested on: A-431
# PROTOCOL DETAILS: Cell proliferation assay, A-431 cells (GI50, Table 6)
# Format: cell-based
# CONDITION LABEL: Homo sapiens, A-431, A-431 cells
A number alone suffices; assume µM.

Examples with answers:
Problem: Item Cc1cc2cc(n1)-c1cnn(C)c1OCCC[C@@H](C)Cn1c(nc3ccc4c(c31)CCN(CCN(C)C)C4)NC2=O [Example B12] : provide GI50
Solution: 1.08

Problem: Item Cc1cc2cc(n1)-c1cnn(C)c1OCCN1CC3CCC(C3)(C1)n1c(nc3ccc(N4CCN(C)CC4)cc31)NC2=O (stereo not shown) [Example B9B] : provide GI50
Solution: 0.366

Problem: Item Cc1cc2cc(n1)-c1cnn(C)c1OCCN1CC3CCC(C3)(C1)n1c(nc3ccc(N4CCN(C(C)C)CC4)cc31)NC2=O (single isomer, unassigned) [Example B57B] : provide GI50
Solution: 0.257

Problem: Item Cc1cc2cc(n1)-c1cnn(C)c1OCCN1CCCCC(C1)n1c(nc3ccccc31)NC2=O (stereo not shown) [Example B4] : provide GI50
Solution: 3.53

Problem: Item Cc1cc2cc(n1)-c1cnn(C)c1OCCN1CC3CCC(CC3)(C1)n1c(nc3ccc(N(C)CCN(C)C)cc31)NC2=O [Example B32] : provide GI50
Solution: 7.41

***
Problem: Item Cc1cc2cc(n1)-c1cnn(C)c1OCCN1CC3CCC(CC3)(C1)n1c(nc3ccc(N4CC5CCN(C)C5C4)cc31)NC2=O (stereo not shown) [Example B35] : provide GI50
Solution: 6.63

Problem: Item CN(C)[C@@H]1CCN(c2ccc3nc4n(c3c2)C23CCC(CC2)CN(CCOc2c(cnn2C)-c2cc(cn(C)c2=O)C(=O)N4)C3)C1 [Example A121] : provide GI50
Solution: 4.97

Problem: Item Cc1cc2cc(n1)-c1cnn(C)c1OCCCCCn1c(nc3ccc4c(c31)CCN(C1COC1)C4)NC2=O [Example B17] : provide GI50
Solution: 1.09

Problem: Item CN1CCN(c2ccc3nc4n(c3c2)C(C)(C)CCCCOc2c(cnn2C)-c2cc(cn(C)c2=O)C(=O)N4)CC1 [Example A112] : provide GI50
Solution: 3.59

Problem: Item C[C@@H]1CCCOc2ccc(F)cc2-c2cc(cn(C)c2=O)C(=O)Nc2nc3ccc(N4CCN(C)CC4)cc3n2C1 [Example A110] : provide GI50
Solution: 0.529

Problem: Item Cn1ncc2c1OCCN1CC3CCC(CC3)(C1)n1c(nc3cc(F)c(N4CCOCC4)cc31)NC(=O)c1cc-2c(=O)n(C)c1 [Example A113] : provide GI50
Solution: 4.69

Problem: Item Cc1cc2cc(n1)-c1cnn(C)c1OCCN1CC3CCC(CC3)(C1)n1c(nc3ccc(N4CC5CN(C)CC5C4)cc31)NC2=O (stereo not shown) [Example B34] : provide GI50
Solution: 4.52

Problem: Item Cn1ncc2c1OCCN1CC3CCC(C3)(C1)n1c(nc3cc(F)c(N4CCOCC4)cc31)NC(=O)c1cc-2c(=O)n(C)c1 (single isomer, unassigned) [Example A118B] : provide GI50
Solution: 1.12

Each recorded value in this set is attributed to patent US20260365670A1.
